Molecular target: MBP-FoxP1dN (Mus musculus, UniProt P58462 326-579)
Sequence: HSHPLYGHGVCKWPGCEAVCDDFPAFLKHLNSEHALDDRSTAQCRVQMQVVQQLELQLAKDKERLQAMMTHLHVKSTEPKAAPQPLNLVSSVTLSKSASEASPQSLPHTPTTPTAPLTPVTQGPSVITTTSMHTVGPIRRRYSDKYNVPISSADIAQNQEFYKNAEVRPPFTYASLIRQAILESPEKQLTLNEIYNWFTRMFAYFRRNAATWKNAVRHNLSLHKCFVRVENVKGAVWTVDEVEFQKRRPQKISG
Experiment: PD-seq (MBP pull-down with sequencing); 20 mM Tris-HCl pH 7.5, 100 mM NaCl, 1.5 mM MgCl2, 0.4 uM protein, 0.1 uM dsDNA library, 30 min, room temperature, amylose pull-down; high values mean tight binding
Settings: protein: recombinant; tags: His6-MBP; chain copies: 2; dsDNA, one strand shown
The full ranking holds about 16,000 sequences; the median of “rpm ratio (pull-down/input)” is about 0.94, and the highest 2% start at about 1.7. Many of the other results were omitted from the sample, so the highest values are more common in it than they were.
Quantity Kind: binding signal

Past entries and their recorded results:
Bench note: what binding signal did GATGATTGTTCTCCCAGCTGATGAATTTATTTCCTCGAGTAAACAAATTTTCCTAATCTTTCTGTTCAAGCGCCATCTAC show?
1.3 RPM ratio (pull-down/input)

Can you handle GATGATTGTTCTCCCAGCTGATGAATTGTTTTACTCGAGTAAACAAATTTTCCTAATCTTTCTGTTCAAGCGCCATCTAC next?
1.42 RPM ratio (pull-down/input)

Can you handle GATGATTGTTCTCCCAGCTGATGAATTATTATCATCGAGTAAACAAATTTTCCTAATCTTTCTGTTCAAGCGCCATCTAC next?
1.38 RPM ratio (pull-down/input)

Can you handle GATGATTGTTCTCCCAGCTGATGAATTCTTAGTATCGAGTAAACAAATTTTCCTAATCTTTCTGTTCAAGCGCCATCTAC next?
0.963 RPM ratio (pull-down/input)

Can you handle GATGATTGTTCTCCCAGCTGATGAATTATTTTACTCGAGTAAACAAATTTTCCTAATCTTTCTGTTCAAGCGCCATCTAC next?
1.2 RPM ratio (pull-down/input)

Can you handle GATGATTGTTCTCCCAGCTGATGAATTTTTTTACTCGAGTAAACAAATTTTCCTAATCTTTCTGTTCAAGCGCCATCTAC next?
0.958 RPM ratio (pull-down/input)

Can you handle GATGATTGTTCTCCCAGCTGATGAATTCGCGGACTCGAGTAAACAAATTTTCCTAATCTTTCTGTTCAAGCGCCATCTAC next?
0.757 RPM ratio (pull-down/input)

Can you handle GATGATTGTTCTCCCAGCTGATGAATTATTTCTATCGAGTAAACAAATTTTCCTAATCTTTCTGTTCAAGCGCCATCTAC next?
1.13 RPM ratio (pull-down/input)

Hey, can you go through the list below and give me binding signal for every item?
1. GATGATTGTTCTCCCAGCTGATGAATTTTTAGTATCGAGTAAACAAATTTTCCTAATCTTTCTGTTCAAGCGCCATCTAC
2. GATGATTGTTCTCCCAGCTGATGAATTTCTAGCATCGAGTAAACAAATTTTCCTAATCTTTCTGTTCAAGCGCCATCTAC
3. GATGATTGTTCTCCCAGCTGATGAATTCGGGGCCTCGAGTAAACAAATTTTCCTAATCTTTCTGTTCAAGCGCCATCTAC
4. GATGATTGTTCTCCCAGCTGATGAATTTGTTTACTCGAGTAAACAAATTTTCCTAATCTTTCTGTTCAAGCGCCATCTAC
5. GATGATTGTTCTCCCAGCTGATGAATTTTATTACTCGAGTAAACAAATTTTCCTAATCTTTCTGTTCAAGCGCCATCTAC
6. GATGATTGTTCTCCCAGCTGATGAATTTGTTGACTCGAGTAAACAAATTTTCCTAATCTTTCTGTTCAAGCGCCATCTAC
7. GATGATTGTTCTCCCAGCTGATGAATTTATTTACTCGAGTAAACAAATTTTCCTAATCTTTCTGTTCAAGCGCCATCTAC

1: 1.02 RPM ratio (pull-down/input); 2: 1.06 RPM ratio (pull-down/input); 3: 0.744 RPM ratio (pull-down/input); 4: 2.62 RPM ratio (pull-down/input); 5: 1.01 RPM ratio (pull-down/input); 6: 2.35 RPM ratio (pull-down/input); 7: 2.5 RPM ratio (pull-down/input)
